These data points were gathered from patent US20120214862A1.

# System: human Factor 7 mRNA
# METHOD DESCRIPTION: Antisense inhibition of human Factor 7 mRNA in HepB3 cells, lipofectin, 50 nM, real-time RT-PCR
# Type: cell-based
# STUDY CONDITIONS: HepB3 cells; gapmers (5-10-5, 3-14-3, 2-13-5 MOE) targeted to nucleobases 4868 to 4899 of SEQ ID NO: 1
In the oligonucleotide strings, read from the 5' end, every base follows the letter of its sugar. An asterisk marks phosphorothioate; unmarked linkages are phosphodiester. Other units and linkages are bracketed, terminal groups are in braces. A string of capitals states the bases alone. e = 2'-O-(2-methoxyethyl) (MOE); [5mC] = 5-methylcytosine; d = 2'-deoxy (DNA)
Criterion: % Inhibition of human Factor 7 mRNA levels meeting or surpassing 70%. Met: yes (1). Not met: no (0).

Past entries and their recorded results:
422294 (antisense eG*eA*dG*dT*dT*d[5mC]*dT*dG*d[5mC]*dA*dG*dG*dA*dG*d[5mC]*eG*eG*e[5mC]*e[5mC]*eT) [compound 422294] | yes (1)
422147 (antisense eG*eA*eG*e[5mC]*e[5mC]*d[5mC]*dG*dA*dG*dT*dT*d[5mC]*dT*dG*d[5mC]*eA*eG*eG*eA*eG) [compound 422147] | no (0)
422144 (antisense e[5mC]*e[5mC]*e[5mC]*eG*eA*dG*dT*dT*d[5mC]*dT*dG*d[5mC]*dA*dG*dG*eA*eG*e[5mC]*eG*eG) [compound 422144] | no (0)

For this substance, is measured % Inhibition of human Factor 7 mRNA levels 70% or higher? 422215 (antisense eG*eT*eT*d[5mC]*dT*dG*d[5mC]*dA*dG*dG*dA*dG*d[5mC]*dG*dG*d[5mC]*d[5mC]*eT*eA*eA) [compound 422215] yes (1)

====

Here the recorded percent inhibition of Factor 7 mRNA, relative to untreated control cells is given for each entry.
# Tested on: human Factor 7 mRNA
# METHOD DESCRIPTION: Dose-dependent antisense inhibition of human Factor 7 in HepB3 cells, transfection with lipofectin
# Type: cell-based
# STUDY CONDITIONS: 25 nM, lipofectin, HepB3 cells, 16 hours
In the oligonucleotide strings, read from the 5' end, every base follows the letter of its sugar. An asterisk marks phosphorothioate; unmarked linkages are phosphodiester. Other units and linkages are bracketed, terminal groups are in braces. A string of capitals states the bases alone. e = 2'-O-(2-methoxyethyl) (MOE); [5mC] = 5-methylcytosine; d = 2'-deoxy (DNA)
Report only the number, with the unit % understood.

422252 (antisense e[5mC]*eG*d[5mC]*d[5mC]*dG*dG*d[5mC]*dT*d[5mC]*dT*dG*d[5mC]*dT*d[5mC]*dA*eT*e[5mC]*e[5mC]*e[5mC]*e[5mC]) [compound 422252] | 61
422177 (antisense e[5mC]*e[5mC]*e[5mC]*dG*d[5mC]*d[5mC]*dG*dG*d[5mC]*dT*d[5mC]*dT*dG*d[5mC]*dT*d[5mC]*dA*eT*e[5mC]*e[5mC]) [compound 422177] | 64
422087 (antisense e[5mC]*eA*eT*eG*e[5mC]*dA*dT*dG*dG*dT*dG*dA*dT*dG*d[5mC]*eT*eT*e[5mC]*eT*eG) [compound 422087] | 73
422229 (antisense eA*eT*dG*d[5mC]*dA*dT*dG*dG*dT*dG*dA*dT*dG*d[5mC]*dT*eT*e[5mC]*eT*eG*eA) [compound 422229] | 72
407939 (antisense eT*eG*e[5mC]*eA*eG*d[5mC]*d[5mC]*d[5mC]*dG*dG*d[5mC]*dA*d[5mC]*d[5mC]*d[5mC]*eA*eG*e[5mC]*eG*eA) [compound 407939] | 75
422152 (antisense eA*eT*eG*d[5mC]*dA*dT*dG*dG*dT*dG*dA*dT*dG*d[5mC]*dT*dT*d[5mC]*eT*eG*eA) [compound 422152] | 67

Query: percent inhibition of Factor 7 mRNA, relative to untreated control cells; subject: 422292 (antisense eG*eT*dT*d[5mC]*dT*dG*d[5mC]*dA*dG*dG*dA*dG*d[5mC]*dG*dG*e[5mC]*e[5mC]*eT*eA*eA) [compound 422292] 63

# repeat for 422217 (antisense eG*eA*eG*dT*dT*d[5mC]*dT*dG*d[5mC]*dA*dG*dG*dA*dG*d[5mC]*dG*dG*e[5mC]*e[5mC]*eT) [compound 422217] 63

Okay, and 422140 (antisense eG*eT*eT*e[5mC]*eT*dG*d[5mC]*dA*dG*dG*dA*dG*d[5mC]*dG*dG*e[5mC]*e[5mC]*eT*eA*eA) [compound 422140] ? 64

Entry to check: 422296 (antisense e[5mC]*e[5mC]*dG*dA*dG*dT*dT*d[5mC]*dT*dG*d[5mC]*dA*dG*dG*dA*eG*e[5mC]*eG*eG*e[5mC]) [compound 422296] 67

What do we get for 422086 (antisense eT*eG*e[5mC]*eA*eT*dG*dG*dT*dG*dA*dT*dG*d[5mC]*dT*dT*e[5mC]*eT*eG*eA*eA) [compound 422086] ? 65

Now the substance 422294 (antisense eG*eA*dG*dT*dT*d[5mC]*dT*dG*d[5mC]*dA*dG*dG*dA*dG*d[5mC]*eG*eG*e[5mC]*e[5mC]*eT) [compound 422294] 61

====

# Test system: human Factor 7 mRNA
# METHOD DESCRIPTION: Inhibition of human Factor 7 mRNA by 2-10-2 MOE shortmers in HepB3 cells, electroporation, 1,000 nM
# Type: cell-based
# STUDY CONDITIONS: electroporation, 1,000 nM oligonucleotide, approximately 24 hours, relative to untreated control cells
In the oligonucleotide strings, read from the 5' end, every base follows the letter of its sugar. An asterisk marks phosphorothioate; unmarked linkages are phosphodiester. Other units and linkages are bracketed, terminal groups are in braces. A string of capitals states the bases alone. e = 2'-O-(2-methoxyethyl) (MOE); [5mC] = 5-methylcytosine; d = 2'-deoxy (DNA)
METRIC: % inhibition of human Factor 7 mRNA (%)
The figure you give is taken to be in %; do not add the unit.

The examples below pair each entry with its known result.
435781 (antisense eA*e[5mC]*d[5mC]*dA*d[5mC]*dG*d[5mC]*dG*dG*dT*dG*dG*eT*eG) [compound 435781] | 0
435755 (antisense eG*eG*dG*dA*d[5mC]*dT*d[5mC]*dA*dG*d[5mC]*dA*dA*eG*eA) [compound 435755] | 0

// lookup % inhibition of human Factor 7 mRNA for 435829 (antisense eG*eG*dG*dT*dA*dG*dA*d[5mC]*d[5mC]*d[5mC]*dT*d[5mC]*eA*eG) [compound 435829] 18

Let us now turn to 435723 (antisense eG*e[5mC]*d[5mC]*dA*dG*d[5mC]*dA*dG*dA*dT*d[5mC]*dA*e[5mC]*eG) [compound 435723] 68

Let us now turn to 435803 (antisense eG*eA*dG*dA*dA*dT*dT*dG*d[5mC]*d[5mC]*d[5mC]*dA*eG*eG) [compound 435803] 0

Record: 435744 (antisense e[5mC]*eT*dA*d[5mC]*dA*dG*d[5mC]*d[5mC]*dT*d[5mC]*dA*dA*eA*e[5mC]) [compound 435744] 19

====

# percent inhibition of Factor 7 mRNA, relative to untreated control cells annotations
# System: human Factor 7 mRNA
# METHOD DESCRIPTION: Dose-dependent antisense inhibition of human Factor 7 in HepB3 cells, transfection with lipofectin
# Format: cell-based
# STUDY CONDITIONS: 3.125 nM, lipofectin, HepB3 cells, 16 hours
In the oligonucleotide strings, read from the 5' end, every base follows the letter of its sugar. An asterisk marks phosphorothioate; unmarked linkages are phosphodiester. Other units and linkages are bracketed, terminal groups are in braces. A string of capitals states the bases alone. e = 2'-O-(2-methoxyethyl) (MOE); [5mC] = 5-methylcytosine; d = 2'-deoxy (DNA)
Number in %, nothing else.

Please review the following examples before continuing.
422087 (antisense e[5mC]*eA*eT*eG*e[5mC]*dA*dT*dG*dG*dT*dG*dA*dT*dG*d[5mC]*eT*eT*e[5mC]*eT*eG) [compound 422087] | 14
422183 (antisense eG*e[5mC]*eG*d[5mC]*d[5mC]*dA*d[5mC]*d[5mC]*d[5mC]*dG*d[5mC]*d[5mC]*dG*dG*d[5mC]*dT*d[5mC]*eT*eG*e[5mC]) [compound 422183] | 28
422229 (antisense eA*eT*dG*d[5mC]*dA*dT*dG*dG*dT*dG*dA*dT*dG*d[5mC]*dT*eT*e[5mC]*eT*eG*eA) [compound 422229] | 21
422215 (antisense eG*eT*eT*d[5mC]*dT*dG*d[5mC]*dA*dG*dG*dA*dG*d[5mC]*dG*dG*d[5mC]*d[5mC]*eT*eA*eA) [compound 422215] | 13

Please examine the following record next.
Data request, read-out percent inhibition of Factor 7 mRNA, relative to untreated control cells, for 422177 (antisense e[5mC]*e[5mC]*e[5mC]*dG*d[5mC]*d[5mC]*dG*dG*d[5mC]*dT*d[5mC]*dT*dG*d[5mC]*dT*d[5mC]*dA*eT*e[5mC]*e[5mC]) [compound 422177] 12
